Data origin: ChEMBL document CHEMBL6078660

# Tested on: Haemonchus contortus
# Assay method text: Anthelmintic activity against Haemonchus contortus L1 to L3 stage assessed as larvae development incubated for 4 days
# Type: functional, organism-based
# Study conditions: 96 h
Measured quantity: EC50 (µM)
Give bare numbers, in µM.

Guide cases for EC50, answers given:
smiles_input=C/C1=C\[C@@H](C)CC[C@@H]2O[C@@H](c3c(O)c(O)c(C)c4c3C(=O)[C@@](O)(O4)[C@@H](C)C[C@H](C)C1)[C@@H](C)[C@@H](O)[C@H]2C measurement_target="Haemonchus contortus" measured_quantity=EC50 unit_of_measure=µM readout_value=50
smiles_input=CC[C@H](C)[C@H]1O[C@]2(CC[C@@H]1C)C[C@@H]1C[C@@H](C/C=C(\C)[C@@H](O[C@H]3C[C@H](OC)[C@@H](O[C@H]4C[C@H](OC)[C@@H](O)[C@H](C)O4)[C@H](C)O3)[C@@H](C)/C=C/C=C3\CO[C@@H]4[C@H](O)C(C)=C[C@@H](C(=O)O1)[C@]34O)O2 measurement_target="Haemonchus contortus" measured_quantity=EC50 unit_of_measure=µM readout_value=0.001

For CC1=c2oc3c(O)c2=C(C(=O)C1=O)[C@@H]1O[C@@H](CC[C@H](C)/C=C(\C)C[C@@H](C)C[C@@H]3C)[C@H](C)[C@H](O)[C@@H]1C , what is its reported EC50?
43
